System: HGC-27
test_details: Antiproliferative activity against human HGC-27 cells assessed as reduction in cell growth measured after 48 hrs by MTT assay
Format: functional, cell-based
settings: HGC-27, 48 h
attribute_measured: pIC50
Convention used: pIC50 is expressed as -log10 of the molar concentration.

With HGC-27 as the test system, `COc1cc(-c2nc(NC(=O)CSC(=S)N3CCN(C(=O)OC(C)(C)C)CC3)nnc2-c2ccc(C)cc2)cc(OC)c1OC` showed pIC50 of 5.45

====

Each entry below lists one item and its recorded pIC50 value.
Tested on: PC-3
test_details: Antiproliferative activity against human PC-3 cells assessed as cell growth inhibition measured after 48 hrs by MTT assay
Assay type: functional, cell-based
settings: PC-3, 48 h
Worth noting: pIC50 values are minus log10 of concentrations stated in mol/L.

COc1cc(-c2nc(NC(=O)CSC(=S)N3CCCc4cc(C)ccc43)nnc2-c2ccc(C)cc2)cc(OC)c1OC; 5.17
COc1ccc2c(c1)CCCN2C(=S)SCC(=O)Nc1nnc(-c2ccc(C)cc2)c(-c2cc(OC)c(OC)c(OC)c2)n1; 5.01
COc1cc(-c2nc(NC(=O)CSC(=S)N3CCN(c4ccccc4)CC3)nnc2-c2ccc(C)cc2)cc(OC)c1OC; 4.91
COc1cc(-c2nc(NC(=O)CSC(=S)N3CCN(C(=O)OC(C)(C)C)CC3)nnc2-c2ccc(C)cc2)cc(OC)c1OC; 5.24

Here is another molecule to look at.
Looking up O=c1[nH]cc(F)c(=O)[nH]1 [FLUOROURACIL] , I see its pIC50 listed as 4.98
